Origin of measurements: patent US20250320312A1

Each record here notes measured OD450.
Biological target: T1, Peptide 8: Biotin-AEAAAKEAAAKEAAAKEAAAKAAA-Tyr-acid (N-terminal biotin; C-terminal acid)
T1 construct: Control peptide without PC
T1 peptide: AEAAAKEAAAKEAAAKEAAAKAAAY
Assay: scFv ELISA
Please reply with the bare figure in OD450 and do not write the unit itself.

Worked examples follow.
INSERT INTO results (binder, quantity_name, unit_descriptor, number) VALUES
  ('PcOxP_DB03_A05 (scFv, V domains shown, scFv in periplasmic extract) VH: EVQLLESGGGLVQPGGSLRLSCAASGFTFSEFYMEWVRQAPGKGLEWVAASRNKANDYTTEYADSVKGRFTISRDNSKNTLYLQMNSLRAEDTAVYYCARDYYGSSYWYFDVWGQGTLVTVSS VL: DIVMTQSPDSLAVSLGERATINCTASESLYSSKHKVHYLAWYQQKPGQPPKLLIYGASNRAIGVPDRFSGSGSGTDFTLTISSLQAEDVAVYYCAQFYFYPLTFGGGTKVEIK', 'OD450', 'OD450', 0.04),
  ('PcOxP_DB02_H06 (scFv, V domains shown, scFv in periplasmic extract) VH: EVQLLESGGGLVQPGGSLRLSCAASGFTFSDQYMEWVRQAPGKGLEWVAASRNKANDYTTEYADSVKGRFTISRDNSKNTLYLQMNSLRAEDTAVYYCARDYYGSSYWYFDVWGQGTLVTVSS VL: DIVMTQSPDSLAVSLGERATINCTSSESLYSSKNKVNYLAWYQQKPGQPPKLLIYGASNRYIGVPDRFSGSGSGTDFTLTISSLQAEDVAVYYCAQFYFYPLTFGGGTKVEIK', 'OD450', 'OD450', 0.05);

query: For PcOxP_DB04_B07 (scFv, V domains shown, scFv in periplasmic extract) VH: EVQLLESGGGLVQPGGSLRLSCAASGPTFSDFYMEWVRQAPGKGLEWVAASRNKANGYTTEYADSVKGRFTISRDNSKNTLYLQMNSLRAEDTAVYYCARDYYGSSYWYFDVWGQGTLVTVSS VL: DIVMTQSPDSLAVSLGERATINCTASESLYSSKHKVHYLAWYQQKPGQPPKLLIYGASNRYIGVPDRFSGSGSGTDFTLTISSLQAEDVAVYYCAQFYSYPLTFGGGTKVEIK , what is its reported OD450?
result: 0.05
